B1: library; numbered along this chain (parent)
chain: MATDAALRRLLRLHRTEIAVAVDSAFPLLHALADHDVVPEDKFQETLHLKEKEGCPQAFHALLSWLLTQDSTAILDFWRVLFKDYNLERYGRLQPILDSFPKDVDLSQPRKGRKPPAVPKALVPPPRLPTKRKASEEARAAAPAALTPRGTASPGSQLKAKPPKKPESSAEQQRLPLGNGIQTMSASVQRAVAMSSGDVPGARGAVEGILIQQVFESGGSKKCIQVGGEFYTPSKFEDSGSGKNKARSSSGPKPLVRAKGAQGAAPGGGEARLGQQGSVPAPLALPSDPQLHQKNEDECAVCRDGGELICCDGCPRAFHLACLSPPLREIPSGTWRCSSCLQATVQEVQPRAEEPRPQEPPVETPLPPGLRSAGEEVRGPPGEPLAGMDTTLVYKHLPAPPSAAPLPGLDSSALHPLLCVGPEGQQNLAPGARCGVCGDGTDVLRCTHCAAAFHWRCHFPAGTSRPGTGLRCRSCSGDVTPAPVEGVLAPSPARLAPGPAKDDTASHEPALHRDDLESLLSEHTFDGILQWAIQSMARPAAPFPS

- Variants of: B1
- MEASUREMENT_NOTES: AIRE transcriptional activation functional score (insulin promoter-GFP; nonsense median 0, synonymous median 1) (normalised score); higher = higher AIRE activity (more reporter activation)
- RECORDED_CONDITIONS: with insulin promoter-GFP reporter in HEK293
Classify as follows. Reported AIRE transcriptional activation functional score greater than or equal to 0.7: Criterion met. Reported AIRE transcriptional activation functional score below: Criterion not met.

Data request: Evaluate K235Y : AIRE transcriptional activation functional score at minimum 0.7?
Data returned: Criterion met

Data request: Evaluate C419D : AIRE transcriptional activation functional score at minimum 0.7?
Data returned: Criterion not met

Data request: Evaluate Q157N : AIRE transcriptional activation functional score at minimum 0.7?
Data returned: Criterion met

Data request: Evaluate S506E : AIRE transcriptional activation functional score at minimum 0.7?
Data returned: Criterion not met

Data request: Evaluate L146F : AIRE transcriptional activation functional score at minimum 0.7?
Data returned: Criterion met

Data request: Evaluate F100V : AIRE transcriptional activation functional score at minimum 0.7?
Data returned: Criterion not met

Data request: Evaluate R9Y : AIRE transcriptional activation functional score at minimum 0.7?
Data returned: Criterion met

Data request: Evaluate S372F : AIRE transcriptional activation functional score at minimum 0.7?
Data returned: Criterion met

Data request: Evaluate L519T : AIRE transcriptional activation functional score at minimum 0.7?
Data returned: Criterion not met

Data request: Evaluate G155I : AIRE transcriptional activation functional score at minimum 0.7?
Data returned: Criterion not met

Data request: Evaluate F43E : AIRE transcriptional activation functional score at minimum 0.7?
Data returned: Criterion not met

Data request: Evaluate D4T : AIRE transcriptional activation functional score at minimum 0.7?
Data returned: Criterion not met

Data request: Evaluate A138Y : AIRE transcriptional activation functional score at minimum 0.7?
Data returned: Criterion met

Data request: Evaluate L444I : AIRE transcriptional activation functional score at minimum 0.7?
Data returned: Criterion met

Data request: Evaluate S338G : AIRE transcriptional activation functional score at minimum 0.7?
Data returned: Criterion met

Data request: Evaluate G527W : AIRE transcriptional activation functional score at minimum 0.7?
Data returned: Criterion met

Data request: Evaluate D103A : AIRE transcriptional activation functional score at minimum 0.7?
Data returned: Criterion not met

Data request: Evaluate A386C : AIRE transcriptional activation functional score at minimum 0.7?
Data returned: Criterion not met

Data request: Evaluate L175H : AIRE transcriptional activation functional score at minimum 0.7?
Data returned: Criterion met

Data request: Evaluate P398D : AIRE transcriptional activation functional score at minimum 0.7?
Data returned: Criterion not met

Data request: Evaluate T390G : AIRE transcriptional activation functional score at minimum 0.7?
Data returned: Criterion met

Data request: Evaluate A19Q : AIRE transcriptional activation functional score at minimum 0.7?
Data returned: Criterion not met

Data request: Evaluate H415I : AIRE transcriptional activation functional score at minimum 0.7?
Data returned: Criterion not met

Data request: Evaluate E517K : AIRE transcriptional activation functional score at minimum 0.7?
Data returned: Criterion not met

Data request: Evaluate Q172T : AIRE transcriptional activation functional score at minimum 0.7?
Data returned: Criterion met

Data request: Evaluate G227Y : AIRE transcriptional activation functional score at minimum 0.7?
Data returned: Criterion not met

Data request: Evaluate H458A : AIRE transcriptional activation functional score at minimum 0.7?
Data returned: Criterion met

Data request: Evaluate D442S : AIRE transcriptional activation functional score at minimum 0.7?
Data returned: Criterion met

Data request: Evaluate E423A : AIRE transcriptional activation functional score at minimum 0.7?
Data returned: Criterion met

Data request: Evaluate S239R : AIRE transcriptional activation functional score at minimum 0.7?
Data returned: Criterion met

Data request: Evaluate E137F : AIRE transcriptional activation functional score at minimum 0.7?
Data returned: Criterion met

Data request: Evaluate T468C : AIRE transcriptional activation functional score at minimum 0.7?
Data returned: Criterion met

Data request: Evaluate A264R : AIRE transcriptional activation functional score at minimum 0.7?
Data returned: Criterion met

Data request: Evaluate P148H : AIRE transcriptional activation functional score at minimum 0.7?
Data returned: Criterion met

Data request: Evaluate G150M : AIRE transcriptional activation functional score at minimum 0.7?
Data returned: Criterion not met

Data request: Evaluate E347W : AIRE transcriptional activation functional score at minimum 0.7?
Data returned: Criterion met

Data request: Evaluate A281N : AIRE transcriptional activation functional score at minimum 0.7?
Data returned: Criterion not met

Data request: Evaluate R316W : AIRE transcriptional activation functional score at minimum 0.7?
Data returned: Criterion met

Data request: Evaluate H458F : AIRE transcriptional activation functional score at minimum 0.7?
Data returned: Criterion not met

Data request: Evaluate V38L : AIRE transcriptional activation functional score at minimum 0.7?
Data returned: Criterion not met

Data request: Evaluate A413N : AIRE transcriptional activation functional score at minimum 0.7?
Data returned: Criterion not met

Data request: Evaluate H30C : AIRE transcriptional activation functional score at minimum 0.7?
Data returned: Criterion not met

Data request: Evaluate D288A : AIRE transcriptional activation functional score at minimum 0.7?
Data returned: Criterion met

Data request: Evaluate N295H : AIRE transcriptional activation functional score at minimum 0.7?
Data returned: Criterion met

Data request: Evaluate E167W : AIRE transcriptional activation functional score at minimum 0.7?
Data returned: Criterion met
